The measurements presented in this section are drawn from patent US12209145B2.

# tgt: PCSK9 (Homo sapiens, UniProt Q8NBP7)
# Construct: Biotinylated PCSK9 was obtained commercially; purchased
# Sequence (Q8NBP7 153-692): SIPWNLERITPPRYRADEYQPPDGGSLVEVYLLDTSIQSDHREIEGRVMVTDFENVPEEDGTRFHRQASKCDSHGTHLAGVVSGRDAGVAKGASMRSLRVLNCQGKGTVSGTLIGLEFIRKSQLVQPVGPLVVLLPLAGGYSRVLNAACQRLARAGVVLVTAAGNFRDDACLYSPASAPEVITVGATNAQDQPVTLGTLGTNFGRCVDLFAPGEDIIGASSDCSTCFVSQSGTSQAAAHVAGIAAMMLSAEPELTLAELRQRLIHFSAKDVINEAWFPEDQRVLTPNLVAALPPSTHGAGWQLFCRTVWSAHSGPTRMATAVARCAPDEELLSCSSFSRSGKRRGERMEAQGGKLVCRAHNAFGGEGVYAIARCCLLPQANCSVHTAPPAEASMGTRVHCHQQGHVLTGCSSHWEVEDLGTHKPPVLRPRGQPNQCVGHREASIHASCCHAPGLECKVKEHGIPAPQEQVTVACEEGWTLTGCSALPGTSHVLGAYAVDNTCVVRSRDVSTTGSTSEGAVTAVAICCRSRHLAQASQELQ
# experimentalProtocol: PCSK9 Alexa FRET Ultra TR-FRET assay (displacement of AlexaFluor647 tagged cyclic peptide)
# Format: binding
# statedConditions: Ki Ultra, 0.5 nM biotinylated PCSK9, 960 nM AF cyclic peptide; Ki calculated from IC50 and KD of AF peptide
propertyLabel: Ki (pM)
Give just the number in pM; leave the unit off.

COc1ccc(C[C@@H]2NC(=O)[C@H]([C@@H](C)O)NC(=O)[C@@H]3[C@@H]4CCN3C(=O)[C@@H]3Cc5cn(c6ccc(F)cc56)CCCCCCN(Cc5ccc(cc5)CCNC(=O)[C@]5(C)CCCN5C2=O)C(=O)CCC(=O)N[C@@H](C)C(=O)N[C@H](CNC(=O)CCCCCCCC[N+](C)(C)C)C(=O)N[C@@H](Cc2cccc(c2)CNC(=O)CO4)C(=O)N3)cc1	6.54
COc1ccc(C[C@@H]2NC(=O)[C@H]([C@@H](C)O)NC(=O)[C@@H]3[C@@H]4CCN3C(=O)[C@@H]3Cc5cn(c6ccc(F)cc56)Cc5cn(nn5)Cc5cc(ccc5CNC(=O)CCC(=O)N[C@@H](C)C(=O)N[C@H](CNC(=O)CCOCCOCC[N+](C)(C)C)C(=O)N[C@@H](Cc5cccc(c5)CNC(=O)CO4)C(=O)N3)CCNC(=O)[C@]3(C)CCCN3C2=O)cc1	247

In: Consider the compound shown here: COc1ccc(C[C@@H]2NC(=O)[C@H]([C@@H](C)O)NC(=O)[C@@H]3[C@@H]4CCN3C(=O)[C@@H]3Cc5cn(c6ccc(F)cc56)CCCCCCN(Cc5ccc(cc5)CCNC(=O)[C@]5(C)CCCN5C2=O)C(=O)CCC(=O)N[C@@H](C)C(=O)N[C@H](CNC(=O)CCOCCOCCCN(C)C)C(=O)N[C@@H](Cc2cccc(c2)CNC(=O)CO4)C(=O)N3)cc1 What is its recorded Ki?
Out: 4.43
